test system: MS2 coat protein; test: apparent KD of MS2 coat protein; designed switch direction (-1 OFF switch, 1 ON switch): -1; higher = weaker reporter binding; conditions: input ligand: FMN 200 uM

polymer.sequence	unit.descriptor	apparent KD of MS2 coat protein
UGAAACCUAGGAUAUACAUGAGGAUCACCCAUGUAAUGUAGUAUAGUAUAUGUAAGAUGUAGAAGGAGGAAAGU [LRO-Excl05-27-Smart Aleck] (Eterna round: R97, puzzle: Exclusion 3)	nM	26.3
AGUUGGCGAGGAUAUACAUGAGGAUCACCCAUGUGUGAGAUAUAAGUGAGGUAAAUAUGUAGAAGGCGCUGACA [JR_Ex3_Sub079] (Eterna round: R97, puzzle: Exclusion 3)	nM	18.4
AGUAUGCGGCAGGAUAUCCAUCCGCGGAAAGGUGGAGAAGGGCUGACAUGAGGAUCACCCAUGUGCGUCCUGUA [salish99_ex6_r4_029] (Eterna round: R97, puzzle: Exclusion 6)	nM	33.5
GCAGCAUAGUCCAAAUAGGACAUACAUGAGGAUCACCCAUGUCAGGAUAUGGUCUGGAUUACAGGCCAGAAGGGACGUAGCUGC [Eli exng3 - 004] (Eterna round: R96, puzzle: Exclusion NG 3)	nM	25.9
UGCAGACGAGGAUAUAAAUUUGAUAACAUGAGGAUCACCCAUGUGAUCGAUAGAUCAAAUUUAGAAGGCGUCUGCA [E5/7-A2] (Eterna round: R97, puzzle: Exclusion 5)	nM	369
GUGUUACAAGUGAGGAUAUCUGCUUUGGUAGAAGCGGAGAAGGCACAUGAGGAUCACCCAUGUCAGGAGUCCAU [Eternabot (L2) Solution 20] (Eterna round: R97, puzzle: Brourd's mod of Exclusion 4)	nM	393
AUAAUACAUGUAGGAUAUCUGCACGUGUAGUGCAGAGAAGGACAUGAGGAUCACCCAUGUAAUUAAGAUCAAUUAUUAAAUUAU [ENG1/3-D3] (Eterna round: R96, puzzle: Exclusion NG 1)	nM	228
GUACUAAAGCUUUGCUUUAGUCGUACAUGAGGAUCACCCAUGUAGGAUAUGGUAAGCAUAGCUUACUAGAAGGAUAGAGUGAUC [Mat - Exclusion NG 3 - Mod of JL - D66] (Eterna round: R96, puzzle: Exclusion NG 3)	nM	285
UUGCCGCAAGGAUAUGCAGACAAGUACAAUACGUGUCUCGGACUUGAGGAUCACCCAAGUAGAAGGCUUUUUAU [LRO-Excl2-14-mod _r4_621 by salish99] (Eterna round: R97, puzzle: Exclusion 2)	nM	23.7
AAGAAACAUGAGGAUCACCCAUGUGAGGAUAUGAAAAAGAAAAGAAAAGAAAGAAGAAUCAGAAGGCACAAAGC [salish99-ex1_r3_090] (Eterna round: R96, puzzle: Exclusion 1)	nM	24
CCUCAGUGAGGAUAUCAGUAAUGUAAGACGUACAGUCGCACUGAGAAGGUACAUGAGGAUCACCCAUGUUAGUU [Eternabot (L1) Solution 50] (Eterna round: R97, puzzle: Exclusion 4)	nM	31.3
ACAUGAGGAUCACCCAUGUAAUCAUGAUGGCUGAUGUAGAGGUAGGAUAUGUGUGGCUUUCUAUCACAGAAGGACCAAGACUGG [Deportation 38 - Jieux - Exclusion NG 3] (Eterna round: R96, puzzle: Exclusion NG 3)	nM	46.3
CUGUACUAAGGAUAUACAUGAGGAUCACCCAUGUCGAUGGUAGGCUGACCGUGACUCCGUAGAAGGUAGAUUCC [Eternabot (L1) Solution 77] (Eterna round: R97, puzzle: Exclusion 3)	nM	100
UUGUUACAUGAGGAUCACCCAUGUGAGGAUAUGGUUCAGUAAUGUAAUGUAAAGUACUCCAGAAGGCACAUGUU [1st #27] (Eterna round: R97, puzzle: Exclusion 1)	nM	1510
UAACGGGCUUCUUCGUUUACAACAUGAGGAUCACCCAUGUUCGAGGAUAUCCACUAAGCUCUUCAGGAGAAGGCGAACAUAAUG [Rizaoran] (Eterna round: R96, puzzle: Exclusion NG 3)	nM	37.2
GCACGAAGUGUAGGAUAUCUGUGCGAUUAGCUCAGAGAAGGACACAUGAGGAUCACCCAUGUGUUCCACGGAAACGAAACGUGC [Eli exng1 - 053] (Eterna round: R96, puzzle: Exclusion NG 1)	nM	9.14
CGGUAGUGCUCAGGAUAUACAUGAGGAUCACCCAUGUAACUAGAAUCGGUCGUCCGAUCAGUGGUGUAGAAGGGAGGCUGGCUG [random 1, A 25%] (Eterna round: R96, puzzle: Exclusion NG 2)	nM	32.1
ACUCCAUAUGUGAGGAUAUGGAAAGAAAAUAAAAUCCAGAAGGCACAUGAGGAUCACCCAUGUACCGCAGGGAC [BmEX4 A.29] (Eterna round: R97, puzzle: Brourd's mod of Exclusion 4)	nM	17.7
